# maps each entry to its pIC50
Target: Human vitronectin receptor (αvβ3) (Homo sapiens, UniProt P05106+P06756)
Construct: Human vitronectin receptor (αvβ3) was purified from human placenta as previously described; from tissue; host or cells: human placenta
Experiment: Vitronectin adhesion assay (solid phase receptor assay, competition with biotinylated vitronectin)
Type: binding
Settings: purified human αvβ3 from placenta; 1 nM biotinylated vitronectin; highest concentration 1.0×10^−4 M; read-out: AvB3 IC50
Structures can show the parent of a compound that is named as a salt.
Units for pIC50: none; it is -log10 of a concentration expressed in mol/L.

Use these answered entries as a reference point.
Molecule | pIC50
C#C[C@H](CC(=O)O)NS(=O)(=O)c1cccc(NC(=O)c2cccc(NC3=NCCN3)c2)c1 [Example 7, Trifluoroacetate Salt] | 7.82
C#CC(CC(=O)O)NS(=O)(=O)c1cccc(NC(=O)c2cccc(NC(=N)N)c2)c1 (centres unmarked) [Example 8, Trifluoroacetate Salt] | 7.95
N=C(N)Nc1cccc(C(=O)Nc2cccc(S(=O)(=O)N3CCCCC3CC(=O)O)c2)c1 (centres unmarked) [Example 6, Trifluoroacetate Salt] | 6.74
N=C(N)Nc1cccc(C(=O)Nc2cccc(S(=O)(=O)NC(CC(=O)O)c3cccnc3)c2)c1 (centres unmarked) [Example 5, tris(Trifluoroacetate) Salt] | 8.33
C=CC(CC(=O)O)NS(=O)(=O)c1cccc(NC(=O)c2cccc(NC(=N)N)c2)c1 (racemic) [Example 3, Trifluoroacetate Salt] | 8.27

# input molecule: N=C(N)Nc1cccc(C(=O)Nc2cccc(S(=O)(=O)NC(CC(=O)O)c3ccccc3)c2)c1 (centres unmarked) [Example 1, Trifluoroacetate Salt] ; wanted: its pIC50
8.78

Another molecule to look at: N=C(N)Nc1cccc(C(=O)Nc2cccc(S(=O)(=O)NC(CC(=O)O)c3cc(Cl)cc(Cl)c3)c2)c1 (racemic) [Example 4, Trifluoroacetate Salt]
6.18

Now the molecule N=C(N)Nc1cccc(S(=O)(=O)Nc2cccc(S(=O)(=O)NC(CC(=O)O)c3ccccc3)c2)c1 (centres unmarked) [Example 9, Trifluoroacetate Salt]
7.53
